List of z-score values.
assay: PSAC antagonists in infected red cells, primary screen, cell-based, P. falciparum Indochina, OD700, 1 h (AID 1154); details: P. falciparum Indochina infected RBC osmotic lysis, higher = more signal, called active from +8 up or from −8 down
assay endpoint: z-score

| molecule | assay endpoint | quantitative readout |
| --- | --- | --- |
| CC(C)[Si](C#CCCCC#N)(O[C@H](c1ccccc1)c1cn([C@H](C)c2ccccc2)nn1)C(C)C | z-score | 1.66 |
| C=CCC(OC(C)=O)[C@@H]1[C@@H](N(Cc2ccc(-c3cccc(C(F)(F)F)c3)o2)C(=O)Cc2ccc(OC)cc2)c2cc(OCCCO)ccc2N1C(=O)c1ccc2ccccc2n1 (some centres undefined) | z-score | 0.83 |
| C=C(CC1([C@@H](NP(=O)(c2ccccc2)c2ccccc2)[C@H]2C[C@@H]2CCN(C(=O)OCC)S(=O)(=O)c2ccc(C)cc2)CC1)c1ccccc1 | z-score | 2.02 |
| COCCCNC(=O)[C@@H]1c2ccccc2C(=O)N(C2CCCCC2)[C@H]1c1ccc(CO)cc1 | z-score | 0.794 |

Origin of the recorded values: PubChem BioAssay
